# credit: patent US8633245B2

target: recombinant human PAI-1 (Homo sapiens); construct: purchased Molecular Innovations, Inc; test: Test Example 2: human PAI-1 inhibitory activity (tPA fluorogenic substrate, pH 7.4 HEPES buffer); assay type: biochemical; settings: human PAI-1; compound concentration 1 μM
In this section we review reported Inhibition Rate of PAI-1 Activity (%) values for a set of compounds.
Number only, in %; omit the unit.

Ask: Please report the recorded Inhibition Rate of PAI-1 Activity (%) for "O=C(O)C(=O)N(CCCCc1ccccc1)c1ccc(-c2ccc3ccccc3c2)cc1" .
Reply: 23

Further cases:
Ask: Please report the recorded Inhibition Rate of PAI-1 Activity (%) for CCCCCCOc1ccc(-c2ccc(OC(F)(F)F)cc2)cc1OC(CCCCCC)C(=O)O (centres unmarked) .
Reply: 93

Ask: Please report the recorded Inhibition Rate of PAI-1 Activity (%) for "O=C(O)CCc1cc(-c2ccc(OC(F)(F)F)cc2)ccc1OCCCCCOc1ccc(-c2ccc(OC(F)(F)F)cc2)cc1CCC(=O)O" .
Reply: 56

---

In this section we review reported Inhibition Rate of PAI-1 Activity (%) values for a set of compounds.
target: recombinant human PAI-1 (Homo sapiens); construct: purchased Molecular Innovations, Inc; assay: Test Example 1: human PAI-1 inhibitory activity (tPA fluorogenic substrate, pH 7.5 Tris buffer); assay type: biochemical; conditions: Compound Concentration 5 μM; Tris buffer
Number only, in %; omit the unit.

Before answering, review these 5 worked examples.
Ask: Please report the recorded Inhibition Rate of PAI-1 Activity (%) for "CCCCc1ccc(-c2ccc(OCc3ccc(C(C)(C)C)cc3)c(CCC(=O)O)c2)cc1" .
Reply: 29

Ask: Please report the recorded Inhibition Rate of PAI-1 Activity (%) for "CC(C)(C)c1ccc(-c2ccc(OCc3ccc(OC(F)(F)F)cc3)c(CCC(=O)O)c2)cc1" .
Reply: 28

Ask: Please report the recorded Inhibition Rate of PAI-1 Activity (%) for "O=C(O)CCc1cc(-c2ccccc2)ccc1OCc1ccc(OC(F)(F)F)cc1" .
Reply: 19

Ask: Please report the recorded Inhibition Rate of PAI-1 Activity (%) for "O=C(O)C(=O)N(Cc1ccc(O)cc1)c1ccc(-c2ccc(OC(F)(F)F)cc2)cc1" .
Reply: 10

Ask: Please report the recorded Inhibition Rate of PAI-1 Activity (%) for "CC(C)(C)c1ccc(COc2ccc(-c3ccc(OC(F)(F)F)cc3)cc2C=CC(=O)O)cc1" .
Reply: 84

Further cases:
Ask: Please report the recorded Inhibition Rate of PAI-1 Activity (%) for "O=C(O)C(=O)N(Cc1ccc(OC(F)(F)F)cc1)c1ccc(-c2ccc(OC(F)(F)F)cc2)cc1" .
Reply: 21

Ask: Please report the recorded Inhibition Rate of PAI-1 Activity (%) for "O=C(O)CCc1cc(-c2ccc(OC(F)(F)F)cc2)ccc1Oc1ccc(OC(F)(F)F)cc1" .
Reply: 23

Ask: Please report the recorded Inhibition Rate of PAI-1 Activity (%) for "O=C(O)C(=O)N(Cc1ccc(-c2ccccc2)cc1)c1ccc(-c2ccc(OC(F)(F)F)cc2)cc1" .
Reply: 27

---

biological target: recombinant human PAI-1 (Homo sapiens); construct: purchased Molecular Innovations, Inc; assay: Test Example 1: human PAI-1 inhibitory activity (tPA fluorogenic substrate, pH 7.5 Tris buffer); assay type: biochemical; settings: Compound Concentration 25 μM; Tris buffer
Use Criterion met when the recorded Inhibition Rate of PAI-1 Activity (%) is no lower than 90%; use Criterion not met when it is lower.

Ask: Decide: is the reported value of Inhibition Rate of PAI-1 Activity (%) for CC(C)(C)c1ccc(CN(C(=O)C(=O)O)c2ccc(-c3ccccc3OC(F)(F)F)cc2)cc1 [Compound 201] equal to or greater than 90%?
Reply: Criterion not met

Ask: Decide: is the reported value of Inhibition Rate of PAI-1 Activity (%) for CC(C)(C)c1ccc(COc2ccc(-c3ccc4c(c3)OCO4)cc2CC(=O)O)cc1 [Compound 10] equal to or greater than 90%?
Reply: Criterion met

Ask: Decide: is the reported value of Inhibition Rate of PAI-1 Activity (%) for CC(C)Oc1ccc(N(Cc2ccc(C(C)(C)C)cc2)C(=O)C(=O)O)c(-c2ccc(OC(F)(F)F)cc2)c1 [Compound 209] equal to or greater than 90%?
Reply: Criterion met

Ask: Decide: is the reported value of Inhibition Rate of PAI-1 Activity (%) for CC(C)(C)c1ccc(COc2ccc(-c3ccc(F)cc3)cc2CCC(=O)O)cc1 [Compound 34] equal to or greater than 90%?
Reply: Criterion met

Ask: Decide: is the reported value of Inhibition Rate of PAI-1 Activity (%) for CC(C)(C)c1ccc(CN(C(=O)C(=O)O)c2ccc(-c3ccc(OC(F)(F)F)cc3)c(CCC(=O)O)c2)cc1 [Compound 196] equal to or greater than 90%?
Reply: Criterion not met

Further cases:
Ask: Decide: is the reported value of Inhibition Rate of PAI-1 Activity (%) for CC(C)(C)c1ccc(COc2ccc(-c3ccc(OC(F)(F)F)cc3)cc2NCC(=O)O)cc1 [Compound 539] equal to or greater than 90%?
Reply: Criterion not met

Ask: Decide: is the reported value of Inhibition Rate of PAI-1 Activity (%) for CC(C)(C)c1ccc(CN(C(=O)C(=O)O)c2ccccc2Sc2ccc(OC(F)(F)F)cc2)cc1 [Compound 631] equal to or greater than 90%?
Reply: Criterion not met

Ask: Decide: is the reported value of Inhibition Rate of PAI-1 Activity (%) for CC(C)(C)c1ccc(-c2ccc(Oc3ccc(-c4ccc(OC(F)(F)F)cc4)cc3CCC(=O)O)c(CCC(=O)O)c2)cc1 [Compound 541] equal to or greater than 90%?
Reply: Criterion met

Ask: Decide: is the reported value of Inhibition Rate of PAI-1 Activity (%) for CC(C)(C)c1ccc(COc2ccc(-c3ccc(C(C)(C)C)cc3)cc2CCC(=O)O)cc1 [Compound 40] equal to or greater than 90%?
Reply: Criterion met

Ask: Decide: is the reported value of Inhibition Rate of PAI-1 Activity (%) for CC(C)(C)c1ccc(COc2cc(/C=C/C(=O)O)cc(Oc3ccc(OC(F)(F)F)cc3)c2)cc1 [Compound 409] equal to or greater than 90%?
Reply: Criterion met

---

In this section we review reported Inhibition Rate of PAI-1 Activity (%) values for a set of compounds.
target: recombinant human PAI-1 (Homo sapiens, UniProt P05121); construct: purchased Molecular Innovations, Inc; experiment: Test Example 2: human PAI-1 inhibitory activity (tPA fluorogenic substrate, pH 7.4 HEPES buffer); assay type: biochemical; details: human PAI-1; compound concentration 1 μM; 1 µM
Sequence (P05121 24-402): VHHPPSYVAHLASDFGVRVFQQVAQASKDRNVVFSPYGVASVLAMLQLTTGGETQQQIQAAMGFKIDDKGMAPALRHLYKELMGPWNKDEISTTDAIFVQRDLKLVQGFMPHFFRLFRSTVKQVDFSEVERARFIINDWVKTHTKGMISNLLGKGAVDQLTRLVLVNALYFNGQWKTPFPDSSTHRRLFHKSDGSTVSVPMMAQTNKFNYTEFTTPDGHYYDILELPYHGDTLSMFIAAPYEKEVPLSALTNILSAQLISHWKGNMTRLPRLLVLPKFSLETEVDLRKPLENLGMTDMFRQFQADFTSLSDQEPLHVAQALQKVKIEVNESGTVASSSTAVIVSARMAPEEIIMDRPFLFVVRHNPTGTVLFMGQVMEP
Number only, in %; omit the unit.

Ask: Please report the recorded Inhibition Rate of PAI-1 Activity (%) for CC(C)(C)C1CCC(N(C(=O)C(=O)O)c2ccc(-c3ccc(OC(F)(F)F)cc3)cc2)CC1 (stereo not shown) [Compound 666] .
Reply: 89

Ask: Please report the recorded Inhibition Rate of PAI-1 Activity (%) for CC(C)(C)C1CCC(CN(C(=O)C(=O)O)c2ccc(-c3ccc(OC(F)(F)F)cc3)cc2)CC1 (stereo not shown) [Compound 680] .
Reply: 77

Ask: Please report the recorded Inhibition Rate of PAI-1 Activity (%) for CC(C)(C)C1CCC(N(C(=O)C(=O)O)c2ccc(-c3ccc(OC(F)(F)F)cc3)cc2)CC1 (stereo not shown) [Compound 665] .
Reply: 67

Ask: Please report the recorded Inhibition Rate of PAI-1 Activity (%) for CC(C)(C)C1CCC(CN(C(=O)C(=O)O)c2ccc(-c3ccc(OC(F)(F)F)cc3)cc2)CC1 (stereo not shown) [Compound 679] .
Reply: 84

---

target: recombinant human PAI-1 (Homo sapiens); construct: purchased Molecular Innovations, Inc; experiment: Test Example 2: human PAI-1 inhibitory activity (tPA fluorogenic substrate, pH 7.4 HEPES buffer); format: biochemical; details: Compound Concentration 1 μM; HEPES buffer
Use Condition met when the recorded Inhibition Rate of PAI-1 Activity (%) is no lower than 40%; use Condition not met when it is lower.

Consider the following illustrative entries.
Ask: Decide: is the reported value of Inhibition Rate of PAI-1 Activity (%) for "CCCCc1ccc(COc2ccc(-c3ccc(OC(F)(F)F)cc3)cc2CCC(=O)O)cc1" equal to or greater than 40%?
Reply: Condition not met

Ask: Decide: is the reported value of Inhibition Rate of PAI-1 Activity (%) for "CC(C)(C)c1ccc(CN(C(=O)C(=O)O)c2ccc(OCc3ccccc3)c(-c3ccc(OC(F)(F)F)cc3)c2)cc1" equal to or greater than 40%?
Reply: Condition met

Ask: Decide: is the reported value of Inhibition Rate of PAI-1 Activity (%) for "CCN(CC)c1ccc(N(Cc2ccc(C(C)(C)C)cc2)C(=O)C(=O)O)cc1-c1ccc(OC(F)(F)F)cc1" equal to or greater than 40%?
Reply: Condition met

Further cases:
Ask: Decide: is the reported value of Inhibition Rate of PAI-1 Activity (%) for "CC(C)Oc1ccc(N(Cc2ccc(C(C)(C)C)cc2)C(=O)C(=O)O)cc1-c1ccc(OC(F)(F)F)cc1" equal to or greater than 40%?
Reply: Condition met

Ask: Decide: is the reported value of Inhibition Rate of PAI-1 Activity (%) for "Cc1cc(N(C)C)c(-c2ccc(OC(F)(F)F)cc2)cc1N(Cc1ccc(C(C)(C)C)cc1)C(=O)C(=O)O" equal to or greater than 40%?
Reply: Condition met
